# System: MCF-7 breast tumour cell line
# methodSummary: Tumor cell proliferation assay (CellTiter-Glo), MCF-7
# Type: cell-based
# details: Homo sapiens, MCF7, 72 h drug exposure, read-out: MCF-7 median IC50
measurementType: IC50 (µM)

Check out these entries, answers already filled in.
compound: COC(=O)c1cc(OC)c2nc(-c3ccc(C4(N)CCC4)cc3)c(-c3ccccc3)n2n1 [Example 12]
IC50, µM: 1.8
--
compound: NC1(c2ccc(-c3nc4c(-c5cc[nH]n5)cc(Cl)nn4c3-c3ccccc3)cc2)CCC1 [Example 19]
IC50, µM: 1.8
--
compound: COc1cc(-c2ccncc2)c2nc(-c3ccc(C4(N)CCC4)cc3)c(-c3ccccc3)n2n1 [Example 75]
IC50, µM: 1.8
--
compound: CNC(=O)c1cc(-c2cc[nH]n2)c2nc(-c3ccc(C4(N)CCC4)cc3)c(-c3ccccc3)n2n1 [Example 65]
IC50, µM: 0.28
--
compound: COC(=O)c1nn2c(-c3ccccc3)c(-c3ccc(C4(N)CCC4)cc3)nc2c(C)c1C [Example 51]
IC50, µM: 1.4

(P) Nc1ccc2nc(-c3ccc(C4(N)CCC4)cc3)c(-c3ccccc3)n2n1 [Example 35]
(Q) CCOC(=O)c1ccc2nc(-c3ccc(C4(N)CCC4)cc3)c(-c3ccccc3)n2n1 [Example 4]
Challenge: // pick min by IC50: P , Q // respond with label for picked entry
Response given: Q
(Q: 1.8 µM, P: 3 µM)

====

# Tested on: MCF-7 breast tumour cell line
# methodSummary: Tumor cell proliferation assay (CellTiter-Glo), MCF-7
# Format: cell-based
# details: Homo sapiens, MCF7, 72 h drug exposure, read-out: MCF-7 median IC50
measurementType: IC50 (µM)

Check out these entries, answers already filled in.
querySmiles: CNC(=O)c1cc(OC)c2nc(-c3ccc(C4(N)CCC4)cc3)c(-c3ccccc3)n2n1
IC50 (µM): 1.8
//
querySmiles: COC(=O)c1cc(-c2cc[nH]n2)c2nc(-c3ccc(C4(N)CCC4)cc3)c(-c3ccccc3)n2n1
IC50 (µM): 1.1

(a) COCCOc1cc(C(N)=O)nn2c(-c3ccccc3)c(-c3ccc(C4(N)CCC4)cc3)nc12
(b) NC1(c2ccc(-c3nc4ccc(C(=O)NCCO)nn4c3-c3ccccc3)cc2)CCC1
Challenge: Higher IC50 between a and b ? // respond with label for picked entry
Response given: a

====

# targetSystem: His-tagged human recombinant kinase full-length Akt2 (Homo sapiens (Human), UniProt P31751)
# Sequence (P31751 whole entry): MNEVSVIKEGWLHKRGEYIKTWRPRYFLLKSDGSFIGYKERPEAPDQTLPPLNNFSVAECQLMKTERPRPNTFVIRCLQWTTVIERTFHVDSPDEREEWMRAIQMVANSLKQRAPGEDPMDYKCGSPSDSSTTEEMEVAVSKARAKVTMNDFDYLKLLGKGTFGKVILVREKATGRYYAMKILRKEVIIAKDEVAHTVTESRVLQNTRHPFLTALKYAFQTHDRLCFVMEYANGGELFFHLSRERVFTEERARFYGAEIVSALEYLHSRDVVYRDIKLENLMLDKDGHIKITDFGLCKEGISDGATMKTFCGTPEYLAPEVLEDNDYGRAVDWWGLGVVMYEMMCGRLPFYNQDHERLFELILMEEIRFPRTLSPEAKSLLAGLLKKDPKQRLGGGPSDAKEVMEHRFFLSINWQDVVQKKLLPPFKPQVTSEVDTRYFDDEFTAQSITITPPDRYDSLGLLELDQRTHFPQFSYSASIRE
# methodSummary: Akt2 kinase assay (Akt2 TR-FRET assay)
# details: 10 μM ATP, 60 min at 22° C., read-out: Akt2 median IC50
measurementType: IC50 (nM)

Check out these entries, answers already filled in.
compound: CCc1ccc2nc(-c3ccc(C4(N)CCC4)cc3)c(-c3ccccc3)n2n1 [Example 2]
unitsText: nM
IC50: 97
--
compound: COc1cc(-c2ccncc2)c2nc(-c3ccc(C4(N)CCC4)cc3)c(-c3ccccc3)n2n1 [Example 75]
unitsText: nM
IC50: 100
--
compound: C=Cc1cc(OC)c2nc(-c3ccc(C4(N)CCC4)cc3)c(-c3ccccc3)n2n1 [Example 18]
unitsText: nM
IC50: 53
--
compound: CNC(=O)c1cc(OC)c2nc(-c3ccc(C4(N)CCC4)cc3)c(-c3ccccc3)n2n1 [Example 26]
unitsText: nM
IC50: 10

(P) COc1cc(OC)c2nc(-c3ccc(C4(N)CCC4)cc3)c(-c3ccccc3)n2n1 [Example 9]
(Q) CNC(=O)c1cc(-c2ncc[nH]2)c2nc(-c3ccc(C4(N)CCC4)cc3)c(-c3ccccc3)n2n1 [Example 62]
Challenge: Higher IC50 between P and Q ? // respond with label for picked entry
Response given: Q

(1) CCOc1cc(OCC)c2nc(-c3ccc(C4(N)CCC4)cc3)c(-c3ccccc3)n2n1 [Example 76]
(2) NC1(c2ccc(-c3nc4c(OCc5ccccc5)cc(Cl)nn4c3-c3ccccc3)cc2)CCC1 [Example 29]
Challenge: Higher IC50 between 1 and 2 ? // respond with label for picked entry
Response given: 2
(2: 78 nM, 1: 23 nM)

====

# targetSystem: His-tagged human recombinant kinase full-length Akt1 (Homo sapiens (Human))
# Sequence (P31749 whole entry): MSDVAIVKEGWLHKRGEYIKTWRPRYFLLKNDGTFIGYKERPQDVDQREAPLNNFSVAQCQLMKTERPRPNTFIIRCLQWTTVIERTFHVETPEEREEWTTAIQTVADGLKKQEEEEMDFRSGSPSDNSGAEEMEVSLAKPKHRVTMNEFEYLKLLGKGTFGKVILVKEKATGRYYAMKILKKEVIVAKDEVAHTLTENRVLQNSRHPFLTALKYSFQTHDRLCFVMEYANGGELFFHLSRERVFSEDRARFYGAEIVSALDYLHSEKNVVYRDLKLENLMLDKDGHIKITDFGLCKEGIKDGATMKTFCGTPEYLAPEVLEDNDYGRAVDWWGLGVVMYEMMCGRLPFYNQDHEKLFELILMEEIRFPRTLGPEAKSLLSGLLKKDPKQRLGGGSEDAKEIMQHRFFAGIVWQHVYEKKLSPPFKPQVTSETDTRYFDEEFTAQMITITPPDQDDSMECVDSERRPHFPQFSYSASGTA
# methodSummary: Akt1 kinase assay (Akt1 TR-FRET assay)
# details: 10 μM ATP, 60 min at 22° C., read-out: Akt1 median IC50
pIC50: −log10 of the molar value.
measurementType: pIC50

compound: Cn1nccc1-c1cc(Cl)nn2c(-c3ccccc3)c(-c3ccc(C4(N)CCC4)cc3)nc12 [Example 23]
pIC50: 5.92
//
compound: CNC(=O)c1cc(-c2cc[nH]n2)c2nc(-c3ccc(C4(N)CCC4)cc3)c(-c3ccccc3)n2n1 [Example 65]
pIC50: 8.51

(P) CCc1cc(-c2cc[nH]n2)c2nc(-c3ccc(C4(N)CCC4)cc3)c(-c3ccccc3)n2n1 [Example 21]
(Q) CCCc1ccnn2c(-c3ccccc3)c(-c3ccc(C4(N)CCC4)cc3)nc12 [Example 47]
Challenge: Higher pIC50 between P and Q ? // respond with label for picked entry
Response given: P
(P: 7.14, Q: 6.66)

====

# targetSystem: His-tagged human recombinant kinase full-length Akt2 (Homo sapiens (Human))
# methodSummary: Akt2 kinase assay (Akt2 TR-FRET assay)
# details: 10 μM ATP, 60 min at 22° C., read-out: Akt2 median IC50
pIC50: −log10 of the molar value.
measurementType: pIC50

molecule: Cc1c(C(N)=O)nn2c(-c3ccccc3)c(-c3ccc(C4(N)CCC4)cc3)nc2c1C [Example 52]
pIC50: 7.82

(1) CNC(=O)c1cc(OCC2CC2)c2nc(-c3ccc(C4(N)CCC4)cc3)c(-c3ccccc3)n2n1 [Example 64]
(2) NC1(c2ccc(-c3nc4c(-c5cc[nH]n5)cc(Cl)nn4c3-c3ccccc3)cc2)CCC1 [Example 19]
(3) CNC(=O)c1cc(-c2cc[nH]n2)c2nc(-c3ccc(C4(N)CCC4)cc3)c(-c3ccccc3)n2n1 [Example 65]
Challenge: // sort entries: pIC50, high to low Your task in answering is to list the labels in the requested order.
Response given: 3, 1, 2

====

# targetSystem: His-tagged human recombinant kinase full-length Akt1 (Homo sapiens (Human))
# methodSummary: Akt1 kinase assay (Akt1 TR-FRET assay)
# details: 10 μM ATP, 60 min at 22° C., read-out: Akt1 median IC50
pIC50: −log10 of the molar value.
measurementType: pIC50

querySmiles: NC1(c2ccc(-c3nc4ccc(Br)nn4c3-c3ccccc3)cc2)CCC1
targetSystem: His-tagged human recombinant kinase full-length Akt1 (Homo sapiens (Human))
pIC50: 7.48
--
querySmiles: COc1nn2c(-c3ccccc3)c(-c3ccc(C4(N)CCC4)cc3)nc2c(C)c1C
targetSystem: His-tagged human recombinant kinase full-length Akt1 (Homo sapiens (Human))
pIC50: 8.04

(A) CCOc1ccc2nc(-c3ccc(C4(N)CCC4)cc3)c(-c3ccccc3)n2n1
(B) NC1(c2ccc(-c3nc4c(-c5cc[nH]n5)ccnn4c3-c3ccccc3)cc2)CCC1
Challenge: Higher pIC50 between A and B ? // respond with label for picked entry
Response given: B

(1) COc1cc(Br)nn2c(-c3ccccc3)c(-c3ccc(C4(N)CCC4)cc3)nc12
(2) CCOc1cc(C(=O)OC)nn2c(-c3ccccc3)c(-c3ccc(C4(N)CCC4)cc3)nc12
Challenge: // pick min by pIC50: 1 , 2 // respond with label for picked entry
Response given: 2

(P) C=Cc1cc(-c2cc[nH]n2)c2nc(-c3ccc(C4(N)CCC4)cc3)c(-c3ccccc3)n2n1
(Q) CSc1ccc2nc(-c3ccc(C4(N)CCC4)cc3)c(-c3ccccc3)n2n1
Challenge: Higher pIC50 between P and Q ? // respond with label for picked entry
Response given: Q

====

# targetSystem: His-tagged human recombinant kinase full-length Akt2 (Homo sapiens (Human))
# methodSummary: Akt2 kinase assay (Akt2 TR-FRET assay)
# details: 10 μM ATP, 60 min at 22° C., read-out: Akt2 median IC50
pIC50: −log10 of the molar value.
measurementType: pIC50

Check out these entries, answers already filled in.
querySmiles: COC(=O)c1cc(-c2ncc[nH]2)c2nc(-c3ccc(C4(N)CCC4)cc3)c(-c3ccccc3)n2n1
targetSystem: His-tagged human recombinant kinase full-length Akt2 (Homo sapiens (Human))
pIC50: 6.55

querySmiles: CCc1cc(CC)c2nc(-c3ccc(C4(N)CCC4)cc3)c(-c3ccccc3)n2n1
targetSystem: His-tagged human recombinant kinase full-length Akt2 (Homo sapiens (Human))
pIC50: 6.80

querySmiles: CCOc1cc(C(N)=O)nn2c(-c3ccccc3)c(-c3ccc(C4(N)CCC4)cc3)nc12
targetSystem: His-tagged human recombinant kinase full-length Akt2 (Homo sapiens (Human))
pIC50: 8.43

querySmiles: Nc1ccnn2c(-c3ccccc3)c(-c3ccc(C4(N)CCC4)cc3)nc12
targetSystem: His-tagged human recombinant kinase full-length Akt2 (Homo sapiens (Human))
pIC50: 6.21

querySmiles: CNC(=O)c1ccnn2c(-c3ccccc3)c(-c3ccc(C4(N)CCC4)cc3)nc12
targetSystem: His-tagged human recombinant kinase full-length Akt2 (Homo sapiens (Human))
pIC50: 6.92

(P) COc1nn2c(-c3ccccc3)c(-c3ccc(C4(N)CCC4)cc3)nc2c(C)c1C
(Q) CCc1cc(-c2cc[nH]n2)c2nc(-c3ccc(C4(N)CCC4)cc3)c(-c3ccccc3)n2n1
(R) NC1(c2ccc(-c3nc4ccc(C(=O)O)nn4c3-c3ccccc3)cc2)CCC1
Challenge: // sort entries: pIC50, high to low Your task in answering is to list the labels in the requested order.
Response given: P, Q, R
